For each entry below, report its switch fluorescence ratio value.
- Test system: ATP;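 note: ATP exposure 15 min at 22 °C before imaging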
- ASSAY DETAILS: switch fluorescence ratio, 500 uM ATP over buffer (Cy3 cluster intensity, sum of 5 cycles each) (fold (ratio)); higher = stronger signal-on switching upon ATP binding; sequences stand for … in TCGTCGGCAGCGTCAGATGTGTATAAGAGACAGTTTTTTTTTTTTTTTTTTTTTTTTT…TC
- SETUP CONDITIONS: aptamer strand: ATP DNA aptamer (quencher-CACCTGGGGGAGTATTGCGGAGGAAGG + anchor), 100 nM annealed; ATP concentration: 500 uM
The reply should be a number, written without any unit.

Task item: If you can, please state the reported switch fluorescence ratio value of GCAGTTAGTT .
Reply: 1.01

Task item: // query: TCATGGGTTG
Reply: 0.981

Task item: Next entry: GCCATCACGC
Reply: 0.984

Task item: Query GGAATCTAGT next
Reply: 0.999

###

- Test system: ATP;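 note: ATP exposure 15 min at 22 °C before imaging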
- ASSAY DETAILS: switch fluorescence ratio, 500 uM ATP over buffer (Cy3 cluster intensity, sum of 5 cycles each) (fold (ratio)); higher = stronger signal-on switching upon ATP binding; sequences stand for … in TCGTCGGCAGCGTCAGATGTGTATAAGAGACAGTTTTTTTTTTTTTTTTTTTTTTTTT…TC
- SETUP CONDITIONS: aptamer strand: ATP DNA aptamer (quencher-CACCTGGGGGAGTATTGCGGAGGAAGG + anchor), 100 nM annealed; ATP concentration: 500 uM
Please provide measured switch fluorescence ratio for the entries that follow.
Please reply with the number alone, leaving off any unit.

Task item: Quick check: switch fluorescence ratio on ATP, item AAACTTGGCT ?
Reply: 1.02

Task item: Another sequence to check: ATACAGGGCT
Reply: 1.01

Task item: Now consider TTTGGAATAC and answer again.
Reply: 2.92

Task item: Now this one: ACGCTATCGC
Reply: 1.53

Task item: // query: AATGTTCTTT
Reply: 0.977

Task item: Can you check TTATCATGGG next?
Reply: 0.993

Task item: Same again, this time with AGGGGAAGGA
Reply: 1

Task item: Now give it for TTTGATGGGC too.
Reply: 0.991

Task item: Please do the same for GTTGGAGTTA as well.
Reply: 0.976

Task item: Let us now turn to GAAGAATAGG
Reply: 0.967

Task item: One more sequence: CGTTAATCTA
Reply: 0.987

Task item: TTCATTCGCT ?
Reply: 1.52

Task item: Entry to check: GACTGAGGTA
Reply: 0.99

Task item: How about CTGGGGTTGT ?
Reply: 1.02

Task item: # iterate: AGGGTTTTAT
Reply: 1

Task item: // same read-out, input: AGAGTCATGT
Reply: 1.01

Task item: Next entry: GAAGGTAGGT
Reply: 0.98

Task item: Another sequence to look at: GGTGGGGAGC
Reply: 1

Task item: Subsequent entry: ACCAGTGTCA
Reply: 1.02

Task item: Check CTGATACATT too.
Reply: 0.972

Task item: Consider next the sequence TAAGGGCGCG in the same way.
Reply: 1.03

Task item: # repeat for CTCTAAGGC
Reply: 1.09

Task item: GGGAGTGTGG , same question.
Reply: 1

Task item: Also CGCCGCTGGG , if possible.
Reply: 1.99

Task item: Note, next up: GACCGGGAGC
Reply: 0.995

Task item: // same read-out, input: GGGAGCCAGT
Reply: 1.05

Task item: Then what about the sequence TAAATATTGT ?
Reply: 1.01

###

- Test system: ATP;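 note: ATP exposure 15 min at 22 °C before imaging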
- ASSAY DETAILS: switch fluorescence ratio, 500 uM ATP over buffer (Cy3 cluster intensity, sum of 5 cycles each) (fold (ratio)); higher = stronger signal-on switching upon ATP binding; sequences stand for … in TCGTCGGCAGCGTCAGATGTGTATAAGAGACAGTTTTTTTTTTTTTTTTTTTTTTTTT…TC
- SETUP CONDITIONS: aptamer strand: ATP DNA aptamer (quencher-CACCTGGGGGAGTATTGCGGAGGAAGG + anchor), 100 nM annealed; ATP concentration: 500 uM
switch fluorescence ratio of 1 or higher: Yes. Under 1: No.

Task item: Has TGTTAGCCTT a recorded switch fluorescence ratio greater than or equal to 1?
Reply: Yes

Task item: Moving on to the next sequence: TAGTATGTGG
Reply: No

Task item: Would you kindly repeat that for TGTGAGGTTC ?
Reply: No

Task item: TCTTGCGTGG , same question.
Reply: No

Task item: Then CTTGTGGCTA ?
Reply: No

Task item: Could you do the same for CGTTAATACT , please?
Reply: Yes

Task item: Please answer likewise for ATTTGGTGTA
Reply: No

Task item: Do the same for TGACACATAC please
Reply: Yes

###

- Tested on: ATP;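 note: ATP exposure 15 min at 22 °C before imaging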
- ASSAY DETAILS: switch fluorescence ratio, 500 uM ATP over buffer (Cy3 cluster intensity, sum of 5 cycles each) (fold (ratio)); higher = stronger signal-on switching upon ATP binding; sequences stand for … in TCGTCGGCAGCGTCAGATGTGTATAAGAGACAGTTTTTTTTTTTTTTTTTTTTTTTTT…TC
- SETUP CONDITIONS: aptamer strand: ATP DNA aptamer (quencher-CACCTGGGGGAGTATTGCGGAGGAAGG + anchor), 100 nM annealed; ATP concentration: 500 uM
Label scheme for switch fluorescence ratio: lower than 1 is no, 1 and above is yes.

Task item: Say whether ACATCTGACA shows switch fluorescence ratio of 1 or more.
Reply: yes

Task item: Let us now turn to TTGTGTTTAT
Reply: no

Task item: // same read-out, input: GAAATACGGT
Reply: yes

Task item: Item: TCCTGGGCTA
Reply: yes

Task item: Record: TCGGGATGGC
Reply: yes

Task item: # repeat for GAGGGCCGTG
Reply: no

Task item: Now the sequence TAAGAAAAAT
Reply: yes

Task item: TTCAATTCAC ?
Reply: yes

Task item: And for CCATTAGCAT ?
Reply: yes

Task item: Now try CAGGCAGCAT .
Reply: yes

Task item: Now this one: CGGGGGTTCG
Reply: yes

Task item: Now the same for TTGCCTCGTT
Reply: yes

Task item: Subsequent entry: GACGCGTTTA
Reply: yes

Task item: For TTGTGGGTTA then?
Reply: no

Task item: Consider next the sequence AGCCGCGCAG in the same way.
Reply: yes

Task item: Repeat with TCTCGTATAT
Reply: yes

Task item: Try the sequence TCTCGATTTT
Reply: yes

Task item: Would you mind doing AAACAGGGTG as well?
Reply: yes

Task item: Entry TTGGGTTAGC please
Reply: yes

Task item: Also, TGCTGGAGGG please.
Reply: no

Task item: Request: CGGGCGAGGG
Reply: no

###

- System: ATP;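 note: ATP exposure 15 min at 22 °C before imaging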
- ASSAY DETAILS: switch fluorescence ratio, 500 uM ATP over buffer (Cy3 cluster intensity, sum of 5 cycles each) (fold (ratio)); higher = stronger signal-on switching upon ATP binding; sequences stand for … in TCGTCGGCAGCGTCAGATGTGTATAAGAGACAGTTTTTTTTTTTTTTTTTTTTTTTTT…TC
- SETUP CONDITIONS: aptamer strand: ATP DNA aptamer (quencher-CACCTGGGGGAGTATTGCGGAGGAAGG + anchor), 100 nM annealed; ATP concentration: 500 uM
OBSERVATION TYPE: switch fluorescence ratio
# answer = number (no unit)

Task item: // query switch fluorescence ratio value for entry TGTTCTTAAG
Reply: 0.975

Task item: Note, next up: ATAATTGGGG
Reply: 0.98

Task item: Next: ATTGTTGGTG
Reply: 0.986

Task item: Would you mind doing TTTGCTGCAG as well?
Reply: 1

Task item: Further, for CGTGACAAGA ?
Reply: 0.986

Task item: Entry GGTGGGACGG please
Reply: 0.991

Task item: Queued: TATGGGGGGT
Reply: 0.976

Task item: Now this one: TTTTTTACCC
Reply: 1.01

Task item: What do you get for TTGGCTTAGA ?
Reply: 1

Task item: Try this sequence too: TAAAACCGGT
Reply: 1.02

Task item: Continue with TCTGTTTTTG
Reply: 1.01

Task item: Now the same for AAGAGATTTT
Reply: 0.986

Task item: Queued: GTAGTTACTT
Reply: 0.995

Task item: Same lookup for CTACACGCTG , please.
Reply: 1.01

Task item: # iterate: GTTATTGAAG
Reply: 0.982

Task item: # iterate: TTATTAGGAT
Reply: 0.974

Task item: Also need TCTGGGGGTA , thanks.
Reply: 0.982

Task item: What would you report for TTTGGGGCGG ?
Reply: 0.989

Task item: Same again, this time with CCGTTTCCGG
Reply: 1.02
